subject of test: NET (Homo sapiens, UniProt P23975)
Sequence (P23975 whole entry): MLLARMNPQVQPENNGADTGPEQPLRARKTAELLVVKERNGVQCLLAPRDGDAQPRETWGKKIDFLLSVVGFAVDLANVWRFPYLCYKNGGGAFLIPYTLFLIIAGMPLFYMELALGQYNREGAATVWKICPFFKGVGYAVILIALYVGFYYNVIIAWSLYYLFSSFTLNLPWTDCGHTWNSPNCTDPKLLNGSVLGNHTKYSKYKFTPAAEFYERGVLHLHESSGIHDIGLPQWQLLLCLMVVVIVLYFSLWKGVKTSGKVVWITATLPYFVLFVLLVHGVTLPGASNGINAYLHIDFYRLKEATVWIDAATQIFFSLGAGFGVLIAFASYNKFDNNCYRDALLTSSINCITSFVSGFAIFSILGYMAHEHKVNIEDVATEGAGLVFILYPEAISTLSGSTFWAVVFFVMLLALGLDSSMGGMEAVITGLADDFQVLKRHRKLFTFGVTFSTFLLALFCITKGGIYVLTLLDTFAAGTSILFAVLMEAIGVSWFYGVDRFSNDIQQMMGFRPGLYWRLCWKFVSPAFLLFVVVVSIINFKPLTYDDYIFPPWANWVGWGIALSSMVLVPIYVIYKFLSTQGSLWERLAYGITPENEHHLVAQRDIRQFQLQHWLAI
assay notes: hNET radioligand binding assay (3H-nisoxetine)
Set-up: expressed in transfected cells; host or cells: HEK-293
condition summary: hNET membranes (HEK-293), 1.0 nM 3H-nisoxetine
value kind: NET pKi

> print(dat)
                                   compound  measured
1  O=C(O)C(F)(F)F.c1ccc(COc2ccccc2O[C@@H](c2ncco2)[C@H]2CCNC2)cc1      ≧7.0
2  Brc1cnc(O[C@@H](c2ccccc2)[C@H]2CCNC2)c(Br)c1.O=C(O)C(F)(F)F      ≧7.0
3  Fc1cc(F)c(O[C@@H](c2ccccc2)[C@H]2CCNC2)nc1F.O=C(O)C(F)(F)F      ≧5.0
4  Fc1ccc(F)c(O[C@@H](c2cnccn2)[C@H]2CCNC2)c1Cl.O=C(O)C(F)(F)F      ≧7.0
5  Fc1cc(Cl)c(O[C@H](c2cncc(Cl)c2)[C@@H]2CCNC2)c(Cl)c1      ≧5.0

I have 7 compounds here; please give me NET pKi for each one.
1. O=C(O)C(F)(F)F.c1ccc2c(O[C@@H](c3ncco3)[C@H]3CCNC3)cccc2c1
2. Clc1cccc(O[C@@H](c2ccccc2)[C@H]2CCNC2)n1.O=C(O)C(F)(F)F
3. COC(=O)c1cc(Cl)ccc1O[C@@H](c1ncco1)[C@H]1CCNC1.O=C(O)C(F)(F)F
4. Clc1ccc(OC(c2ncco2)C2CCNC2)c(Cc2ccccc2)c1 (stereo not shown)
5. Fc1cc(F)c(Cl)c(O[C@@H](c2cnccn2)[C@H]2CCNC2)c1Cl.O=C(O)C(F)(F)F
6. COc1cc(Cl)c(F)cc1O[C@@H](c1ncco1)[C@H]1CCNC1.O=C(O)C(F)(F)F
7. FC(F)(F)c1cnc(O[C@@H](c2ccccc2)[C@H]2CCNC2)c(Cl)c1.O=C(O)C(F)(F)F

Marked response:
1: ≧7.0; 2: ≧7.0; 3: ≧7.0; 4: ≧7.0; 5: ≧7.0; 6: ≧7.0; 7: ≧5.0
